Details: in acetone, 283.15 K
measure: solubility (mole fraction)

### Prompt Recorded solubility (mole fraction) for NC(=O)c1cnccn1 , please?
### Response 0.00244

====

Conditions: in 1,4-dioxane, 323.15 K
measure: solubility (mole fraction)

### Prompt Recorded solubility (mole fraction) for NC(=O)c1cnccn1 , please?
### Response 0.0202

====

Details: in methanol, 303.15 K
measure: solubility (mole fraction)

### Prompt Recorded solubility (mole fraction) for NC(=O)c1cnccn1 , please?
### Response 0.00586

====

Settings: in 1,4-dioxane, 303.15 K
measure: solubility (mole fraction)
Write no unit; give the number alone.

### Prompt Recorded solubility (mole fraction) for NC(=O)c1cnccn1 , please?
### Response 0.0107

====

Details: in 1,4-dioxane, 293.15 K
measure: solubility (mole fraction)

### Prompt Recorded solubility (mole fraction) for NC(=O)c1cnccn1 , please?
### Response 0.0072

====

Settings: in acetone, 293.15 K
measure: solubility (mole fraction)

### Prompt Recorded solubility (mole fraction) for NC(=O)c1cnccn1 , please?
### Response 0.00386

====

Settings: in methanol, 293.15 K
measure: solubility (mole fraction)
Write no unit; give the number alone.

### Prompt Recorded solubility (mole fraction) for NC(=O)c1cnccn1 , please?
### Response 0.00398
